Each recorded value in this set is attributed to the supplement of paper PMC12494721.

Kindly supply the reported growth values for the records listed here.
Test system: Klebsiella aerogenes DSM 30053
PROCEDURE SUMMARY: growth (OD595) fold change vs plate DMSO controls (fold change (ratio)); higher = more growth
CONDITIONS: incubation time: 27 h, anaerobic, 37 °C
Counter-ions that a name gives are not always drawn.
Form: value (number only, do not type unit).

Prompt: // lookup growth for COc1cc(C)nc(-n2nc(C)cc2OC)n1 [Epirizole] (20 µM)
Response: 1

Prompt: Moving on to C=C(NC(=O)C(=C)NC(=O)c1csc(C2=N[C@@H]3c4csc(n4)[C@H]4NC(=O)c5csc(n5)[C@H]([C@](C)(O)[C@@H](C)O)NC(=O)[C@H]5CSC(=N5)/C(=C/C)NC(=O)[C@H]([C@@H](C)O)NC(=O)c5csc(n5)[C@]3(CC2)NC(=O)[C@H](C)NC(=O)C(=C)NC(=O)[C@H](C)NC(=O)[C@H]([C@@H](C)CC)N[C@@H]2C=Cc3c([C@H](C)O)cc(nc3[C@H]2O)C(=O)O[C@@H]4C)n1)C(N)=O [Thiostrepton] (20 µM)
Response: 1.14

Prompt: Same for CC(=O)c1cc2cccc(OCC(O)CNC(C)C)c2o1 (stereo not given) [Befunolol] (20 µM)
Response: 0.953

Prompt: Same read-out for O=c1[nH]c(=O)n([C@H]2C[C@H](O)[C@@H](CO)O2)cc1F [Floxuridine] (20 µM) ?
Response: 0.907

Prompt: Same question for CC(C)Oc1ccc2c(=O)c(-c3ccccc3)coc2c1 [Ipriflavone] (20 µM) please.
Response: 0.992

Prompt: Next up: C[C@H](O)[C@H](O)[C@H]1CNc2[nH]c(N)nc(=O)c2N1 [Sapropterin dihydrochloride] (20 µM)
Response: 0.928

Prompt: Another molecule to look at: CC(C)Nc1cccnc1N1CCN(C(=O)c2cc3cc(NS(C)(=O)=O)ccc3[nH]2)CC1 [Delavirdine] (20 µM)
Response: 0.995

Prompt: Cool, now COc1cc(N)c(Cl)cc1C(=O)NC1CCN(CCCOc2ccc(F)cc2)CC1OC (stereo not given) [Cisapride] (20 µM)
Response: 0.969

Prompt: Please give the result for NS(=O)(=O)c1cc2c(cc1Cl)N=CNS2(=O)=O [Chlorothiazide] (20 µM) too.
Response: 1.03

Prompt: Field entry: Cn1c(=O)c2nc[nH]c2n(C)c1=O [Theophylline monohydrate] (20 µM)
Response: 1.04

----------
Test system: Klebsiella aerogenes DSM 30053
PROCEDURE SUMMARY: fold change of Cadaverine concentration vs plate DMSO controls (fold change (ratio)); higher = more amine produced, active = hit call of the paper (significant change in both replicates, either direction)
CONDITIONS: incubation time: 27 h, anaerobic, 37 °C
MEASURED METRIC: fold change of Cadaverine concentration
Note: the reply should be a number with no unit written.

Prompt: # input compound: COC(=O)C1=C(C)NC(C)=C(C(=O)OCC(C)C)C1c1ccccc1[N+](=O)[O-] (stereo not drawn) [Nisoldipine] (20 µM) ; wanted: its fold change of Cadaverine concentration
Response: 1.01

Prompt: And CC(C)CN(C[C@@H](O)[C@H](Cc1ccccc1)NC(=O)O[C@H]1CCOC1)S(=O)(=O)c1ccc(N)cc1 [Amprenavir] (20 µM) ?
Response: 1.03

Prompt: Subsequent entry: CCOC(=O)OC(C)OC1=C(C(=O)Nc2ccccn2)N(C)S(=O)(=O)c2ccccc21 (stereo not drawn) [Ampiroxicam] (20 µM)
Response: 1.01
